System: A498
Assay: NCI tumour cell line growth inhibition, 48 h
Activity calls are given as the source filed them. No stated cut-off is given here; in the data, active = GI50 up to about 1.1 µM and inactive = higher.
Classes used: active, inactive

# COMPOUND, CAT
measured = [
    ("CNc1cccnc1/C=N/N=C(/N)S", "inactive"),
    ("Cc1oc2c(C)c3oc(=O)cc(C)c3cc2c1CN", "inactive"),
    ("CNC(=O)Nc1cc2c3c(c1)CCCN3CCC2", "inactive"),
    ("OCC1(CNc2cc(Cl)ncn2)CCC1", "inactive"),
    ("CC(NC(=O)C(NC(=O)CNC(=O)OC(C)(C)C)C(C)C)C(=O)Oc1c(Cl)c(Cl)c(Cl)c(Cl)c1Cl (configuration not stated)", "inactive"),
    ("COc1nc(SC)nc2c1C(O)n1c(nc3ccccc31)S2 (configuration not stated)", "inactive"),
    ("O=[N+]([O-])c1ccc(CNC2=NNS(=O)(=O)c3ccccc32)cc1", "inactive"),
    ("COc1cc2c(cc1OC)C1Cc3ccccc3CN1CCC2 (configuration not stated)", "inactive"),
    ("[O-][n+]1c2ccccc2[n+]([O-])c2ccccc21", "inactive"),
    ("Cc1ccccc1NC(=O)c1ccc([N+](=O)[O-])cc1", "inactive"),
    ("Cc1nc(C(N)=S)sc1C(=O)CC(=O)C(=O)Nc1nc2ccccc2[nH]1", "inactive"),
    ("Cc1c(C(=O)Nc2ccccc2)nnn1-c1ccnc2cc(C(F)(F)F)ccc12", "inactive"),
    ("Cc1ccc(C2=NN=C3C(c4ccccc4)=Nc4ccccc4N3C2)cc1", "inactive"),
    ("Cn1cnc([N+](=O)[O-])c1Sc1nc(N)nc2c1ncn2Cc1ccccc1", "inactive"),
    ("COc1cc(Nc2nc3cc(C(F)(F)F)ccc3nc2C)cc(OC)c1OC", "inactive"),
    ("O=C(Cn1c(=O)oc2ccc(C(=O)c3ccc(F)cc3)cc21)c1ccccc1", "inactive"),
    ("N#CC1(C#N)C2CCCCC23OC(=N)C1(C#N)C(c1ccccc1)O3 (configuration not stated)", "inactive"),
    ("CC1(C)N=C(c2ccccn2)C(c2ccccn2)=NC1(C)C", "inactive"),
    ("COc1cccc2nc3c(C(=O)NCCN(C)C)cccc3nc12", "inactive"),
    ("COC(=O)c1c(C)cc2c(c1O)C1(O)C(=O)c3cc4c(c(O)c3C(=O)C1(OC)C(O)C2)C(=O)C=C(NC1OC(C)C(OC)C(O)C1OC)C4=O (configuration not stated)", "active"),
    ("O=c1[nH]cnc2c(COCCO)c[nH]c12", "inactive"),
    ("C/C(=N\\Nc1nc2ccccc2o1)c1cc2ccccc2cn1", "inactive"),
    ("O=C(O)c1cnccc1-c1cc(=O)[nH]n1-c1ccccc1", "inactive"),
    ("C(#C[C@@]12CCC[C@@H]1N(Cc1ccccc1)CO2)c1ccc2c(c1)OCO2", "inactive"),
    ("N#CC(NNC(=O)c1c(Cl)c(Cl)c(Cl)c(Cl)c1-c1nc2cc(C(=O)c3ccccc3)ccc2[nH]1)c1cccc(Oc2ccccc2)c1 (configuration not stated)", "inactive"),
    ("O=C(Cc1nc2ccccc2s1)C(=O)Nc1cccc(Cl)c1", "inactive"),
    ("CCN(CC)CC(=O)Nc1c(C(N)=O)nnn1Cc1cc(Cl)c(C(=O)c2ccc(Cl)cc2)c(Cl)c1", "inactive"),
]
